Experimental details: total protein half-life in vivo (active degradation + dilution); higher = more stable protein
Experimental context: wild type E. coli NCM3722; growth: C-lim chemostat; doubling time 12 h
Metric: total protein half-life in vivo
Report field: quantity (unit follows the number).

In plain terms, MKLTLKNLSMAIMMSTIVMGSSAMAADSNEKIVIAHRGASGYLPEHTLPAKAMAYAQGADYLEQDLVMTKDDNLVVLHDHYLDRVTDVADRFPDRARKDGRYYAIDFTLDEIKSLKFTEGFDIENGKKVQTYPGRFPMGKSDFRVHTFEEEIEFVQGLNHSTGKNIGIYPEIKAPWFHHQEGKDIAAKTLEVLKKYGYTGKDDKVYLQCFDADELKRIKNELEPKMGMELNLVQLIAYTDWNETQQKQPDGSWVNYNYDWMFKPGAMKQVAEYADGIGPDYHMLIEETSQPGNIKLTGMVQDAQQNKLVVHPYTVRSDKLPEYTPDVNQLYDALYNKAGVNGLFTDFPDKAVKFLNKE has a documented total protein half-life in vivo of 11.4 h

----------
Experimental details: total protein half-life in vivo (active degradation + dilution); higher = more stable protein
Experimental context: wild type E. coli NCM3722; growth: P-lim chemostat; doubling time 6 h
# Lookup of reported total protein half-life in vivo keyed by entry
# unit: h | format: bare number

Worked examples, 6 sequences total:
Residue string	total protein half-life in vivo, h
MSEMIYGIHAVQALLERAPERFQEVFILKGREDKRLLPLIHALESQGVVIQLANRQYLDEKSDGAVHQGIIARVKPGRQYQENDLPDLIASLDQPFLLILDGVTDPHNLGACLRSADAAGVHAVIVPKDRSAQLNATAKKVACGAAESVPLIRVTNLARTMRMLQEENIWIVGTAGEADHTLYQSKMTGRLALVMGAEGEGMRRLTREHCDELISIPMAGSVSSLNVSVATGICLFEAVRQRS	5.37
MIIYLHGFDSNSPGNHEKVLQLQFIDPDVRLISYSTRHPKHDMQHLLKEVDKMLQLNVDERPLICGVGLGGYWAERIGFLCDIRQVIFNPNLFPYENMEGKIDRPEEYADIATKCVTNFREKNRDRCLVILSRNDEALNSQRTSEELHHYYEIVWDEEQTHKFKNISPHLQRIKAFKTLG [P0A8E1]	5.07
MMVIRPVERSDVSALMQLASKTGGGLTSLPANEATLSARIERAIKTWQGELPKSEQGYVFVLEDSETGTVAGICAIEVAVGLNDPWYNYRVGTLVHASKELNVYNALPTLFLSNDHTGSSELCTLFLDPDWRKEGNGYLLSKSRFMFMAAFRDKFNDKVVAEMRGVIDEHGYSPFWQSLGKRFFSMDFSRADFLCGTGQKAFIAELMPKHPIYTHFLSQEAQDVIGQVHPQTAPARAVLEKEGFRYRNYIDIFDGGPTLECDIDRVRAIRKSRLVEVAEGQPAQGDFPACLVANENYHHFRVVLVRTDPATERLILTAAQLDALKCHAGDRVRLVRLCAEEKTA [P0AE37]	4.07
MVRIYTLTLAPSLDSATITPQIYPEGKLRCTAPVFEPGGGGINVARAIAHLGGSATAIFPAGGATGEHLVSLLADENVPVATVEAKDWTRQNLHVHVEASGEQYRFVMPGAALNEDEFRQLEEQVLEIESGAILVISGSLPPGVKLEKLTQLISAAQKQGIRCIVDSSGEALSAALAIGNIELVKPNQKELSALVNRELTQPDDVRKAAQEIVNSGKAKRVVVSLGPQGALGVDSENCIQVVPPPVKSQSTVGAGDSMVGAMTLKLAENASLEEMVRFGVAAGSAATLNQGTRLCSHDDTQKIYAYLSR	5.84
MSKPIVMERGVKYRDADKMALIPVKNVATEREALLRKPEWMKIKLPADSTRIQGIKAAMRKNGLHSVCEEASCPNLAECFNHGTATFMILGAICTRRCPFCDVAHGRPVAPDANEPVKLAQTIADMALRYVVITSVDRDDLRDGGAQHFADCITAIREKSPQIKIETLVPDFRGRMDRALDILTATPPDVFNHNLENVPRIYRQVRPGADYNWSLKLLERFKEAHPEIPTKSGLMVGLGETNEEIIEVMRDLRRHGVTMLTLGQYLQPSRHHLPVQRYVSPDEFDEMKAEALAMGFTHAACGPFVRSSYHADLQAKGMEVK	1.74
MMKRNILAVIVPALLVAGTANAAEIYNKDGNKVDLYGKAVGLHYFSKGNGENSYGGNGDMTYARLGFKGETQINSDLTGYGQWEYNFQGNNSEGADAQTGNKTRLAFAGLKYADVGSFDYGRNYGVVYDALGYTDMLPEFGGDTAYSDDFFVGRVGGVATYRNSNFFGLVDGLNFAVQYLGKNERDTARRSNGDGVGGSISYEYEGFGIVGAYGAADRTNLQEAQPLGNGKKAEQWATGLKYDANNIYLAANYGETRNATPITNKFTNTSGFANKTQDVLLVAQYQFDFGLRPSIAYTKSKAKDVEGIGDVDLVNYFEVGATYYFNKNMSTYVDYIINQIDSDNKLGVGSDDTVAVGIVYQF	6.15

Record MSKRLPPLNALRVFDAAARHLSFTRAAEELFVTQAAVSHQIKSLEDFLGLKLFRRRNRSLLLTEEGQSYFLDIKEIFSQLTEATRKLQARSAKGALTVSLLPSFAIHWLVPRLSSFNSAYPGIDVRIQAVDRQEDKLADDVDVAIFYGRGNWPGLRVEKLYAEYLLPVCSPLLLTGEKPLKTPEDLAKHTLLHDASRRDWQTYTRQLGLNHINVQQGPIFSHSAMVLQAAIHGQGVALANNVMAQSEIEAGRLVCPFNDVLVSKNAFYLVCHDSQAELGKIAAFRQWILAKAAAEQEKFRFRYEQ [P0A9F6] . Reported total protein half-life in vivo: 5.82

Just so you know, measured total protein half-life in vivo for MNDAIPRPQAKTRKALTPLLEIRNLTKSYDGQHAVDDVSLTIYKGEIFALLGASGCGKSTLLRMLAGFEQPSAGQIMLDGVDLSQVPPYLRPINMMFQSYALFPHMTVEQNIAFGLKQDKLPKAEIASRVNEMLGLVHMQEFAKRKPHQLSGGQRQRVALARSLAKRPKLLLLDEPMGALDKKLRDRMQLEVVDILERVGVTCVMVTHDQEEAMTMAGRIAIMNRGKFVQIGEPEEIYEHPTTRYSAEFIGSVNVFEGVLKERQEDGLVLDSPGLVHPLKVDADASVVDNVPVHVALRPEKIMLCEEPPANGCNFAVGEVIHIAYLGDLSVYHVRLKSGQMISAQLQNAHRHRKGLPTWGDEVRLCWEVDSCVVLTV came out at 6.22

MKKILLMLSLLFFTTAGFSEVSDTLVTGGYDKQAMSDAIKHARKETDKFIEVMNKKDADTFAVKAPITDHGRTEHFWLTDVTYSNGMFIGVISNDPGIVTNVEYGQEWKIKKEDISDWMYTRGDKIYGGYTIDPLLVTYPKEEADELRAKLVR has a reported total protein half-life in vivo of 3.47

Per the record, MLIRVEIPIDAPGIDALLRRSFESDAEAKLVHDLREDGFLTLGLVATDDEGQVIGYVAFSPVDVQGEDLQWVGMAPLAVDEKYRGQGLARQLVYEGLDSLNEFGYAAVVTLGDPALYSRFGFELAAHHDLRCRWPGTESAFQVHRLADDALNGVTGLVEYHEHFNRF has total protein half-life in vivo of 5.72

Consider MEKEQLIEIANTIMPFGKYKGRRLIDLPEEYLLWFARKDEFPAGKLGELMQITLLIKTEGLTQLVQPLKRPL [P0AD40] . Its measured total protein half-life in vivo is 3.3

Data provenance is the supplement of paper PMC11246515.
